Molecular target: T1, human RANKL protein (Sino Biological, 11682-HNCH) (human, UniProt O14788 136-317, limits assumed)
T1 construct: Bought protein
T1 sequence (looked up): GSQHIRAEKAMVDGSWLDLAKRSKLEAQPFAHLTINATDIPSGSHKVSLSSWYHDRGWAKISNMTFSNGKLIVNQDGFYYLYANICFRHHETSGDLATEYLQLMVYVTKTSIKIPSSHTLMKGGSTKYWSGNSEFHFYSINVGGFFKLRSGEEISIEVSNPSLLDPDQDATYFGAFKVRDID
Assay: SPR (Biacore), antibody captured on Protein A chip, RANKL in flow, 1:1 fit
measured-quantity: koff (s⁻¹)

binder	measured-quantity	measurement-unit	value
4-64L (antibody, V domains shown, Variable regions fused to human constant regions) VH: EVQLLESGGGLVQPGGSLRLSCAASGFTFSSYAMSWVRQAPGKGLEWVSGITGSGGSTYYADSVKGRFTISRDNSKNTLYLQMNSLRAEDTAVYYCAKDPGTTVIMSWFDPWGQGTLVTVSS VL: EIVLTQSPGTLSLSPGERATLSCRASQSVRGRYLAWYQQKPGQAPRLLIYGASSRATGIPDRFSGSGSGTDFTLTISRLEPEDFAVFYCQQYGSSPRIFGQGTKVEIK	koff	s⁻¹	0.000253
1-22H (antibody, V domains shown, Variable regions were fused to human heavy and light chain constant regions to form complete chains) VH: EVQLLESGGGLVQPGGSLRLSCAASGFTFADYAMSWVRQAPGKGLEWVSGISASGSSTYYADSVKGRFTISRDNSKNTLYLQMNSLRAEDTAVYYCAKDPGTTVIMSWFDPWGQGTLVTVSS VL: EIVLTQSPGTLSLSPGERATLSCRASQSVRGRYLAWYQQKPGQAPRLLIYGASSRATGIPDRFSGSGSGTDFTLTISRLEPEDFAVFYCQQYGSSPRTFGQGTKVEIK	koff	s⁻¹	0.000253
2-87L (antibody, IgG4, V domains shown, Variable regions fused to human constant regions) VH: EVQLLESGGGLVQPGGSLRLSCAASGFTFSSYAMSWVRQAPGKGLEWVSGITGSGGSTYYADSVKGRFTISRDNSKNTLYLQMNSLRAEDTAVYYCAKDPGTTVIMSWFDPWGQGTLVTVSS VL: EIVLTQSPGTLSLSPGERATLSCRASQYLPFHRLAWYQQKPGQAPRLLIYDTSSRATGIPDRFSGSGSGTDFTLTISRLEPEDFAVFYCQQYGSSPRTFGQGTKVEIK	koff	s⁻¹	0.000273
2-72L (antibody, V domains shown, Variable regions fused to human constant regions) VH: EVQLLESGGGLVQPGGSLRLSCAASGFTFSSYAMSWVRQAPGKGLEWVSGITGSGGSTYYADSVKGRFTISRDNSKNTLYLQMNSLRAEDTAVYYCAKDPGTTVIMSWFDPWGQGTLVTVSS VL: EIVLTQSPGTLSLSPGERATLSCRASQSLGARGLAWYQQKPGQAPRLLIYGTSSRATGIPDRFSGSGSGTDFTLTISRLEPEDFAVFYCQQYGSSPRTFGQGTKVEIK	koff	s⁻¹	0.000308
2-79L (antibody, V domains shown, Variable regions fused to human constant regions) VH: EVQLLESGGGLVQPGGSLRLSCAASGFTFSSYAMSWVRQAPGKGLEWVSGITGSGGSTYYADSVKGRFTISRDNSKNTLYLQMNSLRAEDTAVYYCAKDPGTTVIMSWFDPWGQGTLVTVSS VL: EIVLTQSPGTLSLSPGERATLSCRASQSVRGRYLAWYQQKPGQAPRLLIYGSSSRATGIPDRFSGSGSGTDFTLTISRLEPEDFAVFYCQQYGSSPRTFGQGTKVEIK	koff	s⁻¹	0.000232
2-76L (antibody, IgG4, V domains shown, Variable regions fused to human constant regions) VH: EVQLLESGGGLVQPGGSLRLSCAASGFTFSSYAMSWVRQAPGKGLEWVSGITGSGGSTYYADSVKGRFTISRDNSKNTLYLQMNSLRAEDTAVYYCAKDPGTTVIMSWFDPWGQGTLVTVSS VL: EIVLTQSPGTLSLSPGERATLSCRASQAIPYNQLAWYQQKPGQAPRLLIYGVSSRATGIPDRFSGSGSGTDFTLTISRLEPEDFAVFYCQQYGSSPRTFGQGTKVEIK	koff	s⁻¹	0.000341
5-53H (antibody, V domains shown, Variable regions fused to human constant regions) VH: EVQLLESGGGLVQPGGSLRLSCAASGFTFSSYAMSWVRQAPGKGLEWVSGITGSGGSTYYADSVKGRFTISRDNSKNTLYLQMNSLRAEDTAVYYCAQDPCFTYIMSWFDPWGQGTLVTVSS VL: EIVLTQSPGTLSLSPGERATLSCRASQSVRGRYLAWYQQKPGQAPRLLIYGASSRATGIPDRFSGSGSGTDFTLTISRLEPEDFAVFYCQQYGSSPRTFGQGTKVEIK	koff	s⁻¹	0.000583

Values from patent US20240254245A1
